tested on: NIH-3T3 viability, ATP luminescence; experiment: murine fibroblast viability via ATP level – cell-based, murine fibroblasts, cytotoxicity control for Trypanosoma cruzi inhibitor project (AID 1159561); details: 4 days
The source made the active and inactive calls.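 Rule for the calls: active = toxic to mouse fibroblast host cells, with IC50 below 50 µM; inactive = the rest.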
Give one outcome, nothing more. List: active, inactive

Look up the recorded call for "O=C(NCc1ccncc1)c1ccccc1N1CCCN(C(=O)Cc2ccc(F)c(F)c2)CC1" in this test.
active

Look up the recorded call for "O=C(Nc1ccc(Br)cn1)c1ccc(Cn2cnc([N+](=O)[O-])n2)cc1" in this test.
inactive

Look up the recorded call for CNc1cncc(C2CCCN2C(=O)Cc2coc3cc(C)ccc23)n1 (configuration not stated) in this test.
inactive

Look up the recorded call for "CN(C)Cc1ccc(N2CCC(NS(=O)(=O)c3ccc(Cl)cc3)CC2)cc1" in this test.
active

Look up the recorded call for CC(C)N(C(=O)CN1C(=O)C(N)C(=O)N(c2ccccc2)c2ccccc21)c1ccccc1 (configuration not stated) in this test.
active

Look up the recorded call for CCC(c1ccc(F)cc1)n1cncc1-c1cnn(C)c1 (configuration not stated) in this test.
active

Look up the recorded call for O=S(=O)(NCC(c1cccnc1)N1CCN(c2ccccc2F)CC1)c1ccc(F)cc1 (configuration not stated) in this test.
inactive

Look up the recorded call for "O=C(CSc1ccc(F)cc1)N[C@@H](Cc1cnc[nH]1)C(=O)NCCc1ccccc1" in this test.
active

Look up the recorded call for CS(=O)(=O)NC1CCC(Oc2cc3cnccc3cc2-c2ccsc2)CC1 (configuration not stated) in this test.
active

---

system: NIH-3T3 viability, ATP luminescence; assay: murine fibroblast viability via ATP level – cell-based, murine fibroblasts, cytotoxicity control for Trypanosoma cruzi inhibitor project (AID 1159561); conditions: 4 days;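 active = toxic to mouse fibroblast host cells, with IC50 below 50 µM; inactive = the rest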
Give one outcome, nothing more. List: yes (1) (active), no (0) (inactive)

Look up the recorded call for "Cc1cc(N(C)C)nc2ccc(Cc3cnc(N)nc3N)cc12" in this test.
yes (1)

---

system: NIH-3T3 viability, ATP luminescence; experiment: murine fibroblast viability via ATP level – cell-based, murine fibroblasts, cytotoxicity control for Trypanosoma cruzi inhibitor project (AID 1159561); conditions: 4 days
Active and inactive are the calls of the source.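 How the source made its calls: active means toxic to mouse fibroblast host cells, with IC50 below 50 µM; inactive means the rest.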
Give one outcome, nothing more. List: active, inactive

Look up the recorded call for "Cc1cc2ncn(-c3ccc([N+](=O)[O-])cc3C#N)c2cc1C" in this test.
inactive

Look up the recorded call for "CN(C)c1ccc(-c2cc3nccnc3c(OC[C@H]3CCCNC3)n2)cn1" in this test.
active

Look up the recorded call for Fc1ccc(OC2CC(NCc3cccc4cn[nH]c34)C2)cc1C(F)(F)F (centres undefined) in this test.
active

Look up the recorded call for CC1(Oc2cncc(Cl)c2)CCN(Cc2cc3ccccc3[nH]2)C1 (centres undefined) in this test.
active

Look up the recorded call for "O=C(COc1ncnc2cc([N+](=O)[O-])ccc12)NC(=O)NC1CCCCC1" in this test.
inactive

Look up the recorded call for "N#Cc1cc(N2CCCC2=O)ccc1Sc1ccccc1CO" in this test.
inactive

Look up the recorded call for CN(C)Cc1ccc(-c2ccc(S(=O)(=O)NCC3CCCO3)c(F)c2)cc1 (centres undefined) in this test.
active

Look up the recorded call for "Clc1cc(Br)ccc1OCCCCn1ccnc1" in this test.
active

Look up the recorded call for CCC1Oc2cc(S(=O)(=O)N(C)CC(=O)N3CCc4ccccc4C3)c(C)cc2NC1=O (centres undefined) in this test.
inactive

Look up the recorded call for "OCCCNc1nc(Nc2ccncc2)nc2ccccc12" in this test.
inactive

Look up the recorded call for CC1CN(S(=O)(=O)c2ccc(NC(=O)c3cc(C4CC4)nc4c3cnn4C(C)C)cc2)CC(C)O1 (centres undefined) in this test.
inactive

Look up the recorded call for "COc1cc(-c2nc(N3CCOCC3)sc2-c2ccnc(NC3CCOCC3)n2)ccc1Cl" in this test.
inactive

Look up the recorded call for "CNc1c(C(N)=O)c(-c2ccc3scnc3c2)nn1CC(F)(F)F" in this test.
active

Look up the recorded call for "O=C(Cn1cnc([N+](=O)[O-])n1)Nc1ccc(Cl)cc1C(=O)c1ccccc1" in this test.
inactive

Look up the recorded call for "CCCCn1nnnc1CSc1nc(C)cc(C)c1C#N" in this test.
inactive

Look up the recorded call for "Cc1ccc2nc(N(Cc3cccnc3)C(=O)CCc3ccccc3)sc2c1" in this test.
active
